The measurements presented in this section are drawn from patent US20230233569A1.

# Experimental system: KRAS G13D (Homo sapiens, UniProt P01116+P62937, G13D)
# Sequence (P01116 1-169 isoform P01116-2 G13D limits assumed): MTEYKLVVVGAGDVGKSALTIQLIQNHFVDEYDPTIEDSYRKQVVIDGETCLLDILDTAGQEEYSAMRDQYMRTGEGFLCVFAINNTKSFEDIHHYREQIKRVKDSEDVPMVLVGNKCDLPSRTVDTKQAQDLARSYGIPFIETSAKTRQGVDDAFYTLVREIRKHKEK
# Sequence (P62937 whole entry): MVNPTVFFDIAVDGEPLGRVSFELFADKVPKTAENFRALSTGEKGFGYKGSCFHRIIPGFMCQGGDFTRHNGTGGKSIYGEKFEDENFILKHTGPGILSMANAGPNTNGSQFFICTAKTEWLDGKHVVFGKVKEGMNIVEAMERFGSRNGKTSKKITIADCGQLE
# Assay text: Disruption of BRAF RBD interaction with Ras (FRET / MOA assay, with Cyclophilin A)
# Format: biochemical
# Experimental conditions: KRAS G13D; read-out: KRAS G13D FRET data IC50
Measured IC50 values are reported for all entries that follow.
Readout kind: IC50

- Molecule: "CCn1c(-c2cccnc2[C@H](C)OC)c2c3cc(ccc31)-c1cccc(c1)C[C@H](NC(=O)[C@H](C(C)C)N(C)C(=O)[C@H]1CCN(C(=O)CN(C)C)C1)C(=O)N1CCC[C@H](N1)C(=O)OCC(C)(C)C2 [Example A96]"
  Readout kind: "IC50"
  Value: "1000 to 10000 nM"
- Molecule: "CCn1c(-c2cnccc2COC)c2c3cc(ccc31)-c1cc(O)cc(c1)C[C@H](NC(=O)[C@H]([C@@H](C)OC)N(C)C(C)=O)C(=O)N1CCC[C@H](N1)C(=O)OCC(C)(C)C2 [Example A76]"
  Readout kind: "IC50"
  Value: "100 to 1000 nM"
- Molecule: "CCn1c(-c2cccnc2[C@H](C)OC)c2c3cc(ccc31)-c1csc(n1)C[C@H](NC(=O)[C@H](C(C)C)N(C)C(=O)[C@H]1CCN(C(=O)/C=C/CN(C)C)C1)C(=O)N1CCC[C@H](N1)C(=O)OCC(C)(C)C2 [Example A282]"
  Readout kind: "IC50"
  Value: "1000 to 10000 nM"

* * *

# Experimental system: NRAS G12C (Homo sapiens, UniProt P01111+P62937, G12C)
# Sequence (P01111 whole entry G12C): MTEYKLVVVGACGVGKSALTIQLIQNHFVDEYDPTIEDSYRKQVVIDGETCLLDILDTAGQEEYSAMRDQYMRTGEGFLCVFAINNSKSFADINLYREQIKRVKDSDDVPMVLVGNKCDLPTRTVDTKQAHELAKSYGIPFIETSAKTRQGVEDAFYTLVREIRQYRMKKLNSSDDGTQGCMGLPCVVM
# Sequence (P62937 whole entry): as the sequence (P62937 whole entry) above
# Assay text: Ras-Raf disruption / FRET / MOA assay (BRAF RBD)
# Type: biochemical
# Experimental conditions: NRAS G12C FRET data IC50, NRAS G12C
pIC50: −log10 of the molar value.

- Compound: "CCn1c(-c2cccnc2[C@H](C)OC)c2c3cc(ccc31)-c1cc(O)cc(c1)C[C@H](NC(=O)[C@H](C(C)C)N(C)C(=O)CN(C)C(=O)[C@@H]1N[C@@H]1C(F)(F)F)C(=O)N1CCC[C@H](N1)C(=O)OCC(C)(C)C2"
  pIC50: "7.00 to 8.00"
- Compound: "CCn1c(-c2cccnc2[C@H](C)OC)c2c3cc(ccc31)-c1cc(O)cc(c1)C[C@H](NC(=O)[C@H](C(C)C)N1CC[C@@H](NC(=O)[C@@H]3CN3)C1=O)C(=O)N1CCC[C@H](N1)C(=O)OCC(C)(C)C2"
  pIC50: "7.00 to 8.00"
- Compound: "CCN1C[C@@H]1C(=O)N(C)CC(=O)N(C)[C@H](C(=O)N[C@H]1Cc2cc(O)cc(c2)-c2ccc3c(c2)c(c(-c2cccnc2[C@H](C)OC)n3CC)CC(C)(C)COC(=O)[C@@H]2CCCN(N2)C1=O)C1CCCC1 (stereo partly shown)"
  pIC50: "> 8.00"
- Compound: "CCn1c(-c2cccnc2[C@H](C)OC)c2c3cc(ccc31)-c1cc(O)cc(c1)C[C@H](NC(=O)[C@H](C1CCCC1)N(C)C(=O)CN(C)C(=O)[C@@H]1N[C@@H]1C1(OC)CC1)C(=O)N1CCC[C@H](N1)C(=O)OCC(C)(C)C2 (single isomer, unassigned)"
  pIC50: "7.00 to 8.00"

* * *

# Experimental system: KRAS G12D (Homo sapiens, UniProt P01116+P62937, G12D)
# Sequence (P01116 1-169 isoform P01116-2 G12D limits assumed): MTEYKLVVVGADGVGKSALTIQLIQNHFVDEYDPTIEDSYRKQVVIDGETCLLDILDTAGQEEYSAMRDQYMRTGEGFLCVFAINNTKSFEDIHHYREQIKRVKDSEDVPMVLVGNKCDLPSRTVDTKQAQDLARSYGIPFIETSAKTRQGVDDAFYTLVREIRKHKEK
# Sequence (P62937 whole entry): as the sequence (P62937 whole entry) above
# Assay text: Disruption of BRAF RBD interaction with Ras (FRET / MOA assay, with Cyclophilin A)
# Assay type: biochemical
# Experimental conditions: read-out: KRAS G12D FRET data, IC50
pIC50: −log10 of the molar value.

- Molecule: "CCn1c(-c2cc(N3CCN(C)CC3)cnc2[C@H](C)OC)c2c3cc(ccc31)-c1csc(n1)C[C@H](NC(=O)[C@H](C(C)C)N(C)C(=O)N1CCOCC1)C(=O)N1CCC[C@H](N1)C(=O)OCC(C)(C)C2 (atropisomer, axis not shown)"
  pIC50: "6.00 to 7.00"
- Molecule: "CCn1c(-c2cccnc2[C@H](C)OC)c2c3cc(ccc31)-c1csc(n1)C[C@H](NC(=O)[C@H](C(C)C)N(C)C(=O)N1CC3(CC3)C1)C(=O)N1CCC[C@H](N1)C(=O)OCC(C)(C)C2 (atropisomer, axis not shown)"
  pIC50: "6.00 to 7.00"
- Molecule: "CCn1c(-c2cnccc2COC)c2c3cc(ccc31)-c1cc(O)cc(c1)C[C@H](NC(=O)[C@H](C(C)C)N(C)C(=O)[C@@H]1CN(C(C)=O)C[C@@H]1C(F)(F)F)C(=O)N1CCC[C@H](N1)C(=O)OCC(C)(C)C2"
  pIC50: "6.00 to 7.00"
- Molecule: "CCn1c(-c2cccnc2[C@H](C)OC)c2c3cc(ccc31)-c1csc(n1)C[C@H](NC(=O)[C@H](C(C)C)N(C)C(=O)N1CC[C@]13CCCN(C)C3)C(=O)N1CCC[C@H](N1)C(=O)OCC(C)(C)C2"
  pIC50: "5.00 to 6.00"
- Molecule: "CCn1c(-c2cccnc2[C@H](C)OC)c2c3cc(ccc31)-c1csc(n1)C[C@H](NC(=O)[C@H](C(C)C)N(C)C(=O)N1CCN(C(=O)[C@H]3CCCN3C)CC1)C(=O)N1CCC[C@H](N1)C(=O)OCC(C)(C)C2 (atropisomer, axis not shown)"
  pIC50: "6.00 to 7.00"
- Molecule: "CCn1c(-c2cccnc2[C@H](C)OC)c2c3cc(ccc31)-c1csc(n1)C[C@H](NC(=O)[C@H](C(C)C)N(C)C(=O)N1CC[C@@H](O)C1)C(=O)N1CCC[C@H](N1)C(=O)OCC(C)(C)C2 (atropisomer, axis not shown)"
  pIC50: "6.00 to 7.00"
- Molecule: "CCn1c(-c2cccnc2[C@H](C)OC)c2c3cc(ccc31)-c1csc(n1)C[C@H](NC(=O)[C@H](C(C)C)N(C)C(=O)N1CCN(C(=O)CCN(C)C)CC1)C(=O)N1CCC[C@H](N1)C(=O)OCC(C)(C)C2"
  pIC50: "6.00 to 7.00"
- Molecule: "C=CC(=O)N1C[C@H](C)[C@H](C(=O)N(C)[C@H](C(=O)N[C@H]2Cc3cc(O)cc(c3)-c3ccc4c(c3)c(c(-c3ccccc3CCOC)n4CC)CC(C)(C)COC(=O)[C@@H]3CCCN(N3)C2=O)C(C)C)C1"
  pIC50: "< 5.00"
- Molecule: "CCn1c(-c2cccnc2[C@H](C)OC)c2c3cc(cnc31)-c1csc(n1)C[C@H](NC(=O)[C@H](C(C)C)N(C)C(=O)N1CC(OC)C1)C(=O)N1CCC[C@H](N1)C(=O)OCC(C)(C)C2"
  pIC50: "5.00 to 6.00"
- Molecule: "CCn1c(-c2cccnc2[C@H](C)OC)c2c3cc(ccc31)-c1csc(n1)C[C@H](NC(=O)[C@H](C(C)C)N(C)C(=O)N1C3CC1CS(=O)(=O)C3)C(=O)N1CCC[C@H](N1)C(=O)OCC(C)(C)C2"
  pIC50: "5.00 to 6.00"
- Molecule: "CCn1c(-c2cccnc2[C@H](C)OC)c2c3cc(ccc31)-c1cc(O)cc(c1)C[C@H](NC(=O)[C@H](C(C)C)N(C)C(=O)[C@H]1C[C@H]1C)C(=O)N1CCC[C@H](N1)C(=O)OCC(C)(C)C2"
  pIC50: "6.00 to 7.00"
- Molecule: "CCn1c(-c2cccnc2[C@H](C)OC)c2c3cc(ccc31)-c1csc(n1)C[C@H](NC(=O)[C@H](C(C)C)N(C)C(=O)[C@H]1CCN(C(=O)CNC)C1)C(=O)N1CCC[C@H](N1)C(=O)OCC(C)(C)C2"
  pIC50: "6.00 to 7.00"
- Molecule: "CCn1c(-c2cccnc2[C@H](C)OC)c2c3cc(ccc31)-c1csc(n1)C[C@H](NC(=O)[C@H](C(C)C)N(C)C(=O)N1CC3(CC(N(C)CCO)C3)C1)C(=O)N1CCC[C@H](N1)C(=O)OCC(C)(C)C2 (atropisomer, axis not shown)"
  pIC50: "6.00 to 7.00"
- Molecule: "CCn1c(-c2cnccc2COC)c2c3cc(ccc31)-c1cc(O)cc(c1)C[C@H](NC(=O)[C@H]([C@@H](C)OC)N(C)C(C)=O)C(=O)N1CCC[C@H](N1)C(=O)OCC(C)(C)C2"
  pIC50: "5.00 to 6.00"
- Molecule: "CCn1c(-c2cccnc2[C@H](C)OC)c2c3cc(ccc31)-c1csc(n1)C[C@H](NC(=O)[C@H](C(C)C)N(C)C(=O)N1CC(CN(C)C)(OC)C1)C(=O)N1CCC[C@H](N1)C(=O)OCC(C)(C)C2 (atropisomer, axis not shown)"
  pIC50: "5.00 to 6.00"
- Molecule: "CCn1c(-c2ccccc2CCOC)c2c3cc(ccc31)-c1cc(O)cc(c1)C[C@H](NC(=O)[C@H](C(C)C)N(C)C(=O)[C@H]1CCN(C(=O)C#CCN(C)C)C1)C(=O)N1CCC[C@H](N1)C(=O)OCC(C)(C)C2"
  pIC50: "5.00 to 6.00"
